Values compiled from the RNAGym collection of RNA variant scans (doi:10.1073/pnas.2313332121).

B1: TPR 5TU (parent)
chain: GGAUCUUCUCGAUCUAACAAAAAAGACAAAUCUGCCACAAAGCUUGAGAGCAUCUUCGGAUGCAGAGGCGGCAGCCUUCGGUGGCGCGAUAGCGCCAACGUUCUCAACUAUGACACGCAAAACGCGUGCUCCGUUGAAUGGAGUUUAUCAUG

- Variants of: B1
- Measurement Protocol: polymerase ribozyme fitness, log enrichment relative to wild type (log ratio); higher = more active; in vitro selection for triplet polymerase activity
Fewer inactive variants are shown than the library holds.
Experimental Endpoint: polymerase ribozyme fitness (log ratio)
Please reply with the number alone, leaving off any unit.

Mutation List	polymerase ribozyme fitness (log ratio)
A20U A41U G83U A89C C96G A150U	-2.06
C85A C96A	-2.22
A49G U55A	-0.644

Q. Consider the variant A21C C95U C129A . State its measured polymerase ribozyme fitness (log ratio).
A. -2.89

Q. Consider the variant A40U C116A . State its measured polymerase ribozyme fitness (log ratio).
A. 0.309

Q. Consider the variant U56C C108U . State its measured polymerase ribozyme fitness (log ratio).
A. -4.01

Q. Consider the variant A16U A17U G48U U104G G124A C131G . State its measured polymerase ribozyme fitness (log ratio).
A. -4.15
